system: 293FT/ACE2/TMPRSS2/DSP1-7 cells; conditions: 2 days, WST-8
measurement name: concentration above which cytotoxicity was exhibited

1. CC1=C(/C=C/C(C)=C/C=C/C(C)=C/C(=O)Nc2ccc(O)cc2)C(C)(C)CCC1 [4-HPR, N-(4-Hydroxyphenyl) retinamide] | above 10 µM
2. CCCCCCCCc1ccc(CCC(N)(CO)CO)cc1 [FTY720] | above 10 µM

---

system: SARS-CoV-2 S protein-mediated cell-cell fusion; assay: microbe, parasite or virus in culture; type: cell-based
# EC50 per entry

Study these solved cases before continuing.
1. COc1ccc(/C=C/C(=O)c2c(-c3ccccc3)c3ccccc3[nH]c2=O)cc1 [Ceranib-2] | > 1.3 µM
2. CCCCCCCCCCCCCC1=C([C@H](O)[C@@H](CO)NC(=O)CCCCCCC)C1 [GT11] | > 10 µM
3. CCCCCCCCCCCC(=O)N[C@@H](CO)C[C@H](O)c1ccccc1 [HPA12] | > 40 µM
4. Oc1ccc(Nc2nc(-c3ccc(Cl)cc3)cs2)cc1 [SKI-II] | > 10 µM
5. CCCC[C@@H](C)[C@@H](OC(=O)C[C@@H](CC(=O)O)C(=O)O)[C@H](C[C@@H](C)C[C@H](O)CCCC[C@@H](O)C[C@H](O)[C@H](C)N)OC(=O)C[C@@H](CC(=O)O)C(=O)O [Fumonisin B1] | > 40 µM

Problem: Given the molecule O=C(/C=C/c1ccc(/C=C/C(=O)Nc2ccc(C3=NCCN3)cc2)cc1)Nc1ccc(C2=NCCN2)cc1 [GW4869] , what is its reported EC50?
Result: > 10 µM

Problem: Field entry: CCCCCCCCCCCCCCCC(=O)NC(CN1CCOCC1)C(O)c1ccccc1 (stereo not drawn) [erythro-PPMP]
Result: 9.1 µM

---

tested on: 293FT/ACE2/TMPRSS2/DSP1-7 cells; settings: 2 days, WST-8
measurement name: concentration above which cytotoxicity was exhibited

1. Oc1ccc(Nc2nc(-c3ccc(Cl)cc3)cs2)cc1 [SKI-II] | above 20 µM
2. CCCCCCCCCCCCCC1=C([C@H](O)[C@@H](CO)NC(=O)CCCCCCC)C1 [GT11] | above 20 µM
3. O=C(/C=C/c1ccc(/C=C/C(=O)Nc2ccc(C3=NCCN3)cc2)cc1)Nc1ccc(C2=NCCN2)cc1 [GW4869] | above 20 µM

---

assay: in vitro; conditions: human
Each record here notes measured CC50.
Quick note: give the figure in µM, leave out the unit.

1) CC1=C(/C=C/C(C)=C/C=C/C(C)=C/C(=O)Nc2ccc(O)cc2)C(C)(C)CCC1 [4-HPR, N-(4-Hydroxyphenyl) retinamide] | 11.5
2) CCCCCCCCc1ccc(CCC(N)(CO)CO)cc1 [FTY720] | 12.5

Please look at the following molecule next.
Problem: Any idea what its CC50 is? The molecule is CCCCCCCCCCCCCCCC(=O)NC(CN1CCOCC1)C(O)c1ccccc1 (stereo not drawn) [threo-PPMP]
Result: 25.6

---

test system: 293FT/ACE2/TMPRSS2/DSP1-7 cells; conditions: 293FT/ACE2/TMPRSS2/DSP1-7 cells, 2 days, WST-8
measurement name: CC50 (µM)
Quick reminder: number only, in µM, skip the unit.

For orientation, consider the following solved cases.
1) CCCCCCCCCCCCCCCC(=O)NC(CN1CCOCC1)C(O)c1ccccc1 (stereo not shown) | 35.8
2) COc1ccc(/C=C/C(=O)c2c(-c3ccccc3)c3ccccc3[nH]c2=O)cc1 | 26.9

Problem: Given the entry CCCCCCCCCCCCCC1=C([C@H](O)[C@@H](CO)NC(=O)CCCCCCC)C1 , report its measured CC50.
Result: 20.3
